Reference source for all entries: patent US20260116991A1

Listing: OD450 at 10 nM antibody of selected binders
Target: T1, murine GPC3-his protein (Sino Biological, Cat. No. 50989-M08B) (murine, UniProt Q8CFZ4 25-558)
T1 construct: Bought protein; also called murine GPC3 protein
T1 sequence (Q8CFZ4 25-558 limits assumed): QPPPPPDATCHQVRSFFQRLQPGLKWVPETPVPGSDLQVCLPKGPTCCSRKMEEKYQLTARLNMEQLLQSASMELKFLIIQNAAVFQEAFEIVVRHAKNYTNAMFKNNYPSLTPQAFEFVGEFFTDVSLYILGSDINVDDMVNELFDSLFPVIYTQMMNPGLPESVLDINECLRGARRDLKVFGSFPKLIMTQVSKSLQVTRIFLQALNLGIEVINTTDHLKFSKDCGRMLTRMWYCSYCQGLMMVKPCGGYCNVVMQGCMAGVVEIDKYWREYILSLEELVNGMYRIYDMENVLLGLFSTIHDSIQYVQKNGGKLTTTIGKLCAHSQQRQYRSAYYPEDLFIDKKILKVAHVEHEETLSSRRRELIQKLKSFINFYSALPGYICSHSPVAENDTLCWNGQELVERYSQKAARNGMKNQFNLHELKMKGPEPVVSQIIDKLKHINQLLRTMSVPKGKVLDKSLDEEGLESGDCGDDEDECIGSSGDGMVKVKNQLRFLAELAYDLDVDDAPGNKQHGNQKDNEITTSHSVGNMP
Assay: ELISA, coated murine GPC3-His;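 note: antigen coated on plates at 1 µg/mL, test antibody bound for 2 h at 37 °C, detected with HRP-conjugated secondary antibody and TMB substrate after acid stop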

binder	OD450 at 10 nM antibody
F2.154.1 human-murine chimeric antibody (antibody, human IgG1, kappa, V domains shown) VH: QVQLQQSGAELVRPGASVKLSCKASGYRFTDYEMHWVKQTPVHGLEWIGTIDPETGNTAYTQKFMDKATLTADKSSSTAYMELRSLTSEDSAVYYCTRGYSFTYWGQGTLATVSA VL: DVLMTQTPLSLPVSLGDQASISCRSSQNIVHSNGNTYLQWYLQKPGQSPKLLIFKVSNRFSGVPDRFSGSGSGTDFTLKISRVEAEDLGVYYCFQGSHVPFTFGTGTKLEIKR	0.05 OD450 nm

Exercise: What value of measured OD450 at 10 nM antibody is listed for F1.92.17 human-murine chimeric antibody (antibody, human IgG1, kappa, V domains shown) VH: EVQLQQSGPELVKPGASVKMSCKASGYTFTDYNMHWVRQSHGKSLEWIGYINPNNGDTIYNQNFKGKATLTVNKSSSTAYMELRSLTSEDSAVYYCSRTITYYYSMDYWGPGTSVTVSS VL: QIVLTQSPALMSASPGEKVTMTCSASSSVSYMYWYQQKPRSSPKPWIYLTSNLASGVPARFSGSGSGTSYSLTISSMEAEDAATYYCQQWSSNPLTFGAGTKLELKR ?
Key: 0.22 OD450 nm
